# assay-comment: NCI Yeast Anticancer Drug Screen. Data for the cln2 rad14 strain (AID 165);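 note: 0% = growth equal to vehicle treated cultures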
# condition-context: S. cerevisiae cln2 rad14 strain, at 50.0 µM
This is part of a sample that, as a whole, favours compounds with a hit. Of some 79,000 tested, about 15% had one in any assay. Calls of active or inactive are those of the source. Cut-off read from the data, not from the text of the source: active = growth inhibition above about 70%; inactive = the rest.
Hi there, use one of these labels in your reply, thanks! class 1 = active, class 0 = inactive

{"compound": "C[N+]1(CC2CC2)C2CC(OC(=O)C(CO)c3ccccc3)CC1C1OC12 (configuration not stated)", "assigned-label": "class 0"}
{"compound": "C=CCN(CC=C)C1CCOC(OC)C1O (configuration not stated)", "assigned-label": "class 0"}
{"compound": "[Se]C1=NCCN1", "assigned-label": "class 1"}
{"compound": "CCOC(=O)C1C(=O)C(CN(CCCl)CCCl)C(=O)C(C(=O)OCC)C1c1cc(OC)c(OC)c(OC)c1 (configuration not stated)", "assigned-label": "class 0"}
{"compound": "CCN1CN(c2ccccc2)C2(CCN(CC(CC3OCCO3)c3ccc(F)cc3)CC2)C1=O (configuration not stated)", "assigned-label": "class 0"}
{"compound": "C1CCC(NCC2CCCO2)CC1 (configuration not stated)", "assigned-label": "class 1"}

Please share the test call associated with C[CH2][Sn]([Br])([CH2]C)[c]1ccccc1CN(C)C .
class 1

Please share the test call associated with OC1=C2CCCCCC2=[N+]2CCCCC2C1 (configuration not stated) .
class 0

Please share the test call associated with NC(CCOCCP(=O)(O)O)C(=O)O (configuration not stated) .
class 0

Please share the test call associated with COC(=O)C(C)N(CCCl)P(=O)(N1CC1)N1CC1 (configuration not stated) .
class 0

Please share the test call associated with C[N+](C)(C)CC1CCC(C[N+](C)(C)C)C1=NO (configuration not stated) .
class 0
